# EXPERIMENTAL_TARGET: Full-length glucokinase (beta cell isoform) (Homo sapiens, UniProt P35557)
# Construct: Full-length glucokinase (beta cell isoform) was His-tagged at N-terminus; His tag (N); made in house
# Sequence (P35557 1-465): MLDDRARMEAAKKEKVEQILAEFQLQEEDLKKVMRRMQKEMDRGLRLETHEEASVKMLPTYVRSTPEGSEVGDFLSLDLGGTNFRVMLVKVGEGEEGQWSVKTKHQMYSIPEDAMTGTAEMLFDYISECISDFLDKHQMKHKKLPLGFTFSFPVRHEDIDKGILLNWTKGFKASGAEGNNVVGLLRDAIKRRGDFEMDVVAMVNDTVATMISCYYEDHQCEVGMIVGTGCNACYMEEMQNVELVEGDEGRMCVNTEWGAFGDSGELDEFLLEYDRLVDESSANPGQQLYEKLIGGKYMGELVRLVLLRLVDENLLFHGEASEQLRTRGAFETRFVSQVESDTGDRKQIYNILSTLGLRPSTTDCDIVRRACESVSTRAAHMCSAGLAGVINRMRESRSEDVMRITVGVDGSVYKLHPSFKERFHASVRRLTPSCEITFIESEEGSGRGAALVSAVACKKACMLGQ
# ASSAY_COMMENT: Glucokinase biochemical assay (PK/LDH-coupled, NADH depletion at 340 nm): % activation, EC50, % max activation
# CONDITION_PARAMETERS: 5 mM glucose; fitted maximum activation; read-out: % Max Activation

- COMPOUND: "CC1(C)Cc2c(Oc3ccc(S(C)(=O)=O)cc3)cc(C(=O)Nc3ccon3)cc2O1"
  Emax [%]: 200
- COMPOUND: "Cn1ccc(NC(=O)c2cc(Oc3ccc(S(=O)(=O)C4CC4)cc3)c3c(c2)OC(C)(CO)C3)n1 (stereo not shown)"
  Emax [%]: 236
- COMPOUND: "COc1ccnc(NC(=O)c2cc(Oc3ccc(S(C)(=O)=O)cc3)c3cc(C)oc3c2)c1"
  Emax [%]: 60
- COMPOUND: "CCS(=O)(=O)c1ccc(Oc2cc(C(=O)Nc3cnn(C)n3)cc3c2CC(C)(C)O3)cc1F"
  Emax [%]: 257
- COMPOUND: "Cc1ccc(NC(=O)c2cc(OC(C)C)cc3occc23)nc1"
  Emax [%]: 106
- COMPOUND: "Cc1ccc(NC(=O)c2cc(Oc3ccc(S(C)(=O)=O)c(F)c3)c3c(c2)OC(C)(C)C3)nc1"
  Emax [%]: 112
- COMPOUND: "Cn1ccc(NC(=O)c2cc(Oc3ccc(S(C)(=O)=O)cc3)c3cc(CO)oc3c2)n1"
  Emax [%]: 228
- COMPOUND: "Cn1ccc(NC(=O)c2cc(Oc3ccc(C(=O)N4CCOCC4)cc3F)c3c(c2)OC(C)(C)C3)n1"
  Emax [%]: 141
- COMPOUND: "Cc1cc2c(Oc3ccc(S(=O)(=O)N(C)C)c(F)c3)cc(C(=O)Nc3ccn(C)n3)cc2o1"
  Emax [%]: 168
- COMPOUND: "Cn1ncc(NC(=O)c2cc(Oc3ccc(C(=O)N4CCC4)cc3)c3c(c2)OC(C)(C)C3)n1"
  Emax [%]: 250
- COMPOUND: "CN(C)C(=O)c1ccc(Oc2cc(C(=O)Nc3ccn(C)n3)cc3c2CC(C)(C)O3)nc1"
  Emax [%]: 135
- COMPOUND: "Cn1ccc(NC(=O)c2cc(Oc3ccc(C(=O)N4CCOCC4)cc3)c3c(c2)OC(C)(C)C3)n1"
  Emax [%]: 156
- COMPOUND: "Cn1ccc(NC(=O)c2cc(Oc3cc(F)c(C(=O)N4CCC4)c(F)c3)c3c(c2)OC(C(F)F)C3)n1 (stereo not shown)"
  Emax [%]: 127
- COMPOUND: "COc1ccc(CC(C)Oc2cc(C(=O)Nc3ccn(C)n3)cc3c2CC(C)(C)O3)cc1 (stereo not shown)"
  Emax [%]: 171
- COMPOUND: "CC1(C)Cc2c(Oc3ccc(S(C)(=O)=O)cc3)cc(C(=O)Nc3nnc(C4CC4)s3)cc2O1"
  Emax [%]: 158
- COMPOUND: "CCOc1ccc(NC(=O)c2cc(Oc3ccc(S(=O)(=O)N4CCC4)cc3)c3cc(C)oc3c2)nc1"
  Emax [%]: 110
- COMPOUND: "CNC(=O)c1ccc(Oc2cc(C(=O)Nc3ccn(C)n3)cc3c2CC(C)(C)O3)cn1"
  Emax [%]: 212
- COMPOUND: "CN(C)C1CN(C(=O)c2ccc(Oc3cc(C(=O)Nc4ccn(C)n4)cc4c3CC(C)(C)O4)c(F)c2)C1"
  Emax [%]: 146
- COMPOUND: "Cn1ccc(NC(=O)c2cc(Oc3ccc(S(=O)(=O)C4CC4)c(F)c3)c3c(c2)OC(C)(C)C3)n1"
  Emax [%]: 216
- COMPOUND: "CCNC(=O)c1c(F)cc(Oc2cc(C(=O)Nc3ccn(C)n3)cc3c2CC(C)(C)O3)cc1F"
  Emax [%]: 153
- COMPOUND: "CCNC(=O)c1ncc(Oc2cc(C(=O)Nc3ccn(C)n3)cc3c2CC(C)(C)O3)cc1F"
  Emax [%]: 189
- COMPOUND: "Cn1ccc(NC(=O)c2cc(Oc3ccc(C(=O)N4CC[C@H](O)C4)c(F)c3)c3c(c2)OC(C)(C)C3)n1"
  Emax [%]: 165

====

# EXPERIMENTAL_TARGET: Full-length glucokinase (beta cell isoform) (Homo sapiens)
# Construct: Full-length glucokinase (beta cell isoform) was His-tagged at N-terminus; His tag (N); made in house
# Sequence (P35557 1-465): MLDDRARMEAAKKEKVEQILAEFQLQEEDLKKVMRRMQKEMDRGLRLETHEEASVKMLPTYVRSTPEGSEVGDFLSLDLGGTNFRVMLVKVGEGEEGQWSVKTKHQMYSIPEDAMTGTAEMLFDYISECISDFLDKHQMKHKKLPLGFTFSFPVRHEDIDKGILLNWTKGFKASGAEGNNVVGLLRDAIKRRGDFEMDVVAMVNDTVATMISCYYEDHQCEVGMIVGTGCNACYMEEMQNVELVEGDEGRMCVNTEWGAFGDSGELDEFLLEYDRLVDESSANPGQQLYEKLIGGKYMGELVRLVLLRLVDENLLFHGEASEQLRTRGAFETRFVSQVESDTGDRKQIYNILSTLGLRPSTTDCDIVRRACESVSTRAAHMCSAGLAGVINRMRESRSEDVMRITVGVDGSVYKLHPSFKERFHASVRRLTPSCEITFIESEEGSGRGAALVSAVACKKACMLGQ
# ASSAY_COMMENT: Glucokinase biochemical assay (PK/LDH-coupled, NADH depletion at 340 nm): % activation, EC50, % max activation
# CONDITION_PARAMETERS: 5 mM glucose; fitted maximum activation; read-out: % Max Activation

- MOLECULE: "CC1(C)Cc2c(OCc3ccccc3)cc(C(=O)Nc3ccc(C(=O)O)cn3)cc2O1"
  Emax: "66%"
- MOLECULE: "CCS(=O)(=O)c1ccc(Oc2cc(C(=O)Nc3ccn(C)n3)cc3c2CC(C)(C)O3)cc1"
  Emax: "165%"
- MOLECULE: "Cc1ccc(NC(=O)c2cc(Oc3ccc(S(C)(=O)=O)cc3)c3c(c2)OC(C)(C)C3)nc1"
  Emax: "140%"
- MOLECULE: "Cc1cc2c(Oc3ccc(C(=O)N(C)C)nc3)cc(C(=O)Nc3cnn(C)n3)cc2o1"
  Emax: "123%"
- MOLECULE: "COCC1(C)Cc2c(Oc3ccc(C(=O)N4CCC4)c(F)c3)cc(C(=O)Nc3ccn(C)n3)cc2O1 (centres unmarked) [Example 242]"
  Emax: "144%"
- MOLECULE: "CN(C)C(=O)c1ccc(Oc2cc(C(=O)Nc3cnn(C)n3)cc3c2CC(C)(C)O3)cc1"
  Emax: "161%"
- MOLECULE: "CN(C)C(=O)c1ccc(Oc2cc(C(=O)Nc3cnn(C)n3)cc3c2CC(C)(C)O3)cc1F"
  Emax: "130%"
- MOLECULE: "COCC1Cc2c(Oc3ccc(C(=O)N4CCC4)c(F)c3)cc(C(=O)Nc3ccn(C)n3)cc2O1 (centres unmarked)"
  Emax: "94%"
- MOLECULE: "COCC1(C)Cc2c(Oc3ccc(S(C)(=O)=O)cc3)cc(C(=O)Nc3ccc(C)cn3)cc2O1 (centres unmarked)"
  Emax: "106%"
- MOLECULE: "Cn1ccc(NC(=O)c2cc(Oc3ccc(C(=O)N4CCCC4)c(F)c3)c3c(c2)OC(C)(C)C3)n1"
  Emax: "108%"
- MOLECULE: "Cn1ccc(NC(=O)c2cc(Oc3ccc(C(=O)N4CCC4)cc3F)c3c(c2)OC(C)(C)C3)n1"
  Emax: "177%"

====

# EXPERIMENTAL_TARGET: Full-length glucokinase (beta cell isoform) (Homo sapiens, UniProt P35557)
# Construct: Full-length glucokinase (beta cell isoform) was His-tagged at N-terminus; His tag (N); made in house
# ASSAY_COMMENT: Glucokinase biochemical assay (PK/LDH-coupled, NADH depletion at 340 nm): % activation, EC50, % max activation
# CONDITION_PARAMETERS: 5 mM glucose; GK activation; read-out: EC50
Catalogue of EC50 values
READOUT: EC50

- COMPOUND: "Cc1ccc(NC(=O)c2cc(Oc3ccc(C(=O)N(C)C)c(F)c3)c3c(c2)OC(C)(C)C3)nc1 [Example 148]"
  READOUT: "EC50"
  OBS_VALUE: "42.8 nM"
- COMPOUND: "Cn1ccc(NC(=O)c2cc(Oc3ccc(S(C)(=O)=O)cc3)c3ccsc3c2)n1 [Example 356]"
  READOUT: "EC50"
  OBS_VALUE: "> 10000 nM"
- COMPOUND: "Cn1ccc(NC(=O)c2cc(OCC3CC3)c3c(c2)OC(C)(C)C3)n1 [Example 89]"
  READOUT: "EC50"
  OBS_VALUE: "3900 nM"
- COMPOUND: "CCOc1cc(C(=O)Nc2ccn(C)n2)cc2c1CC(C)(C)O2 [Example 92]"
  READOUT: "EC50"
  OBS_VALUE: "9500 nM"
- COMPOUND: "CC1(C)Cc2c(Oc3ccc(S(C)(=O)=O)cc3)cc(C(=O)Nc3nnc(C4CC4)s3)cc2O1 [Example 28]"
  READOUT: "EC50"
  OBS_VALUE: "2000 nM"
- COMPOUND: "Cc1cc2c(Oc3ccc(S(C)(=O)=O)cc3)cc(C(=O)Nc3ccc(C#N)cn3)cc2o1 [Example 261]"
  READOUT: "EC50"
  OBS_VALUE: "7900 nM"
- COMPOUND: "CNC(=O)c1ccc(Oc2cc(C(=O)Nc3ccn(C)n3)cc3c2CC(C)(C)O3)cn1 [Example 166]"
  READOUT: "EC50"
  OBS_VALUE: "410 nM"
- COMPOUND: "Cn1ccc(NC(=O)c2cc(Oc3ccc(S(C)(=O)=O)cc3)c3c(c2)OC(C)(CF)C3)n1 (centres unmarked) [Example 251]"
  READOUT: "EC50"
  OBS_VALUE: "430 nM"
- COMPOUND: "COCC1Cc2c(Oc3ccc(C(=O)N(C)C)cc3)cc(C(=O)Nc3ccn(C)n3)cc2O1 (single isomer, unassigned; (+)) [Example 212]"
  READOUT: "EC50"
  OBS_VALUE: "2600 nM"
- COMPOUND: "Cc1cc2c(Oc3ccc(S(=O)(=O)N4CCC4)cc3)cc(C(=O)Nc3cnn(C)n3)cc2o1 [Example 298]"
  READOUT: "EC50"
  OBS_VALUE: "210 nM"
- COMPOUND: "Cc1ccc(NC(=O)c2cc(Oc3ccc(C(=O)N(C)C)cc3)c3c(c2)OC(C)(C)C3)nc1 [Example 150]"
  READOUT: "EC50"
  OBS_VALUE: "110 nM"
- COMPOUND: "CC(Oc1cc(C(=O)Nc2ccn(C)n2)cc2c1CC(C)(C)O2)c1cnccn1 (centres unmarked) [Example 82]"
  READOUT: "EC50"
  OBS_VALUE: "5100 nM"
- COMPOUND: "Cn1ncc(NC(=O)c2cc(Oc3ccc(C#N)c(F)c3)c3c(c2)OC(C)(C)C3)n1 [Example 184]"
  READOUT: "EC50"
  OBS_VALUE: "3200 nM"
- COMPOUND: "Cn1ccc(NC(=O)c2cc(Oc3ccc(C(=O)N4CC[C@H](O)C4)c(F)c3)c3c(c2)OC(C)(C)C3)n1 [Example 62]"
  READOUT: "EC50"
  OBS_VALUE: "700 nM"
- COMPOUND: "Cc1cc2cc(C(=O)Nc3ccn(C)n3)cc(Oc3ccc(C(=O)N(C)C)cc3)c2s1 [Example 331]"
  READOUT: "EC50"
  OBS_VALUE: "320 nM"
- COMPOUND: "Cn1ccc(NC(=O)c2cc(Oc3ccc(C(=O)N4CC(O)C4)c(F)c3)c3c(c2)OC(C)(C)C3)n1 [Example 55]"
  READOUT: "EC50"
  OBS_VALUE: "680 nM"
- COMPOUND: "COCC1Cc2c(Oc3ccc(S(C)(=O)=O)cc3)cc(C(=O)Nc3ccn(C)n3)cc2O1 (centres unmarked) [Example 201]"
  READOUT: "EC50"
  OBS_VALUE: "2800 nM"
- COMPOUND: "CN(CCO)C(=O)c1ccc(Oc2cc(C(=O)Nc3ccn(C)n3)cc3c2CC(C)(C)O3)cc1F [Example 66]"
  READOUT: "EC50"
  OBS_VALUE: "410 nM"
- COMPOUND: "Cc1cc2c(OC3CN(S(C)(=O)=O)C3)cc(C(=O)Nc3cnn(C)n3)cc2o1 [Example 325]"
  READOUT: "EC50"
  OBS_VALUE: "> 10000 nM"
- COMPOUND: "Cn1ccc(NC(=O)c2cc(Oc3ccc(S(C)(=O)=O)cc3)c3c(c2F)OC(C)(C)C3)n1 [Example 190]"
  READOUT: "EC50"
  OBS_VALUE: "7300 nM"
